Entry source: patent US20250099557A1

Assay: Pharmacokinetics of model antibiotics in mice: tail vein injection vs subcutaneous administration combined with recombinant human HAase
Conditions: male, ICR, mouse, blood, sc, Cmax, ICR male mice; in combination with recombinant human HAase for subcutaneous administration; single dose 100-200 mg/kg
assay-readout: Cmax (µg/mL)

> print(dat)
                                   compound  readout.units  assay.result
1  C[C@@H](O)[C@H]1C(=O)N2C(C(=O)O)=C(S[C@@H]3CN[C@H](C(=O)Nc4cccc(C(=O)O)c4)C3)[C@H](C)[C@H]12          µg/mL           333

====

System: intestinal flora
Test: Effects of administration routes on the diversity of intestinal flora in mice (16S rDNA sequencing, OTU)
Type: in vivo
Conditions: C57BL/6 mice, feces; in combination with recombinant human HAase for subcutaneous administration, five consecutive days; D3
assay-readout: Relative abundance of OUT (operational taxonomic units) (%)

> print(dat)
                                   compound  assay.result
1  CO/N=C(\C(=O)N[C@@H]1C(=O)N2C(C(=O)O)=C(CSc3nc(=O)c(=O)[nH]n3C)CS[C@H]12)c1csc(N)n1          28.9
2  CC(C)(O/N=C(\C(=O)N[C@@H]1C(=O)N2C(C(=O)[O-])=C(C[n+]3ccccc3)CS[C@H]12)c1csc(N)n1)C(=O)O          34.3
3  C[C@@H](O)[C@H]1C(=O)N2C(C(=O)O)=C(S[C@@H]3CN[C@H](C(=O)Nc4cccc(C(=O)O)c4)C3)[C@H](C)[C@H]12          28.9
4  CC1=C(C(=O)O)N2C(=O)[C@@H](NC(=O)[C@H](N)C3=CCC=CC3)[C@H]2SC1          36.3
